# test.system: Serotonin 5-HT2C (Homo sapiens, UniProt P28335)
# Sequence (P28335 33-458): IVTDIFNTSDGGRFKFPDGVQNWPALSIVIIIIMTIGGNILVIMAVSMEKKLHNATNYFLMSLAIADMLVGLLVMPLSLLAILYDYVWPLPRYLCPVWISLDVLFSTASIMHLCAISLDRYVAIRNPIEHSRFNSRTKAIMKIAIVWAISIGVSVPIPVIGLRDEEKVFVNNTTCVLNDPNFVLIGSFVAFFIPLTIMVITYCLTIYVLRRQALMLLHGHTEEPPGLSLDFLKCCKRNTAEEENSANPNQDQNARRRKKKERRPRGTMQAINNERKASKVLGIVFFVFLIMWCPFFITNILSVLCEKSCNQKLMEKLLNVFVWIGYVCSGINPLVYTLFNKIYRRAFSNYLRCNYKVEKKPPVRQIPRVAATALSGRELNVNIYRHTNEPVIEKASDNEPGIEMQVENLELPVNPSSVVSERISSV
# assay.comment: Receptor activities, Ki (Table 1)
# Assay type: binding
parameter.measured: pKi
pKi is defined as minus the log10 of a concentration measured in mol/L.

Tested on Serotonin 5-HT2C (Homo sapiens, UniProt P28335): Cc1ccc2c(c1)c1c(n2CCc2ccccc2)CCN(C)C1.Cl [A•HCl] . Observed pKi: 8.93

###

# assay.comment: Pharmacokinetics, single and multiple dosing of capsules in volunteers (Example 11)
# Format: in vivo, human
# test.conditions: human, in vivo, oral, 60 mg/day, repeated doses, 60-mg cohort; read-out: Tmax, median
parameter.measured: Tmax
Report field: quantity (unit follows the number).

Sure, the documented Tmax for Cc1ccc2c(c1)c1c(n2CCc2ccccc2)CCN(C)C1.Cl [A•HCl] is 1 h

###

# test.system: Adrenergic α2A (Homo sapiens)
# Sequence (P08913 whole entry): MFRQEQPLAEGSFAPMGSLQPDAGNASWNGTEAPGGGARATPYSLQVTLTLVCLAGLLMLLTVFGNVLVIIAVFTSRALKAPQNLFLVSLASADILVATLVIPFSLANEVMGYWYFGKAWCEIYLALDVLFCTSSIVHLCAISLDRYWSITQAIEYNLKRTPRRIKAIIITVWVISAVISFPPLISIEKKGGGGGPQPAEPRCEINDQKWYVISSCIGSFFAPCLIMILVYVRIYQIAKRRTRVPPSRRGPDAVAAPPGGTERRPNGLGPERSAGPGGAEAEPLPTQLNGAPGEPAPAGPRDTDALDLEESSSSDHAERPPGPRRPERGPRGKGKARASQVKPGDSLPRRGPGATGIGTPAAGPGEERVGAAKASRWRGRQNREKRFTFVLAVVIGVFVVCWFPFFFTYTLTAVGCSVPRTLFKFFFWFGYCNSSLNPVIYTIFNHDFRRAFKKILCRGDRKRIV
parameter.measured: Ki (nM)
Response body: numeric value in nM, unit text excluded.

Tested on Adrenergic α2A (Homo sapiens): Cc1ccc2c(c1)c1c(n2CCc2ccccc2)CCN(C)C1.Cl [A•HCl] . Observed Ki: 1.77

###

# assay.comment: Pharmacokinetics, single and multiple dosing of capsules in volunteers (Example 11)
# Assay type: in vivo, human
# test.conditions: human, in vivo, oral, 20 mg, single dose, 40-mg cohort; read-out: Tmax, median
parameter.measured: Tmax
Report field: quantity (unit follows the number).

Sure, the documented Tmax for Cc1ccc2c(c1)c1c(n2CCc2ccccc2)CCN(C)C1.Cl [A•HCl] is 45 min

###

# test.system: Adrenergic α2C (Homo sapiens)
# Sequence (P18825 whole entry): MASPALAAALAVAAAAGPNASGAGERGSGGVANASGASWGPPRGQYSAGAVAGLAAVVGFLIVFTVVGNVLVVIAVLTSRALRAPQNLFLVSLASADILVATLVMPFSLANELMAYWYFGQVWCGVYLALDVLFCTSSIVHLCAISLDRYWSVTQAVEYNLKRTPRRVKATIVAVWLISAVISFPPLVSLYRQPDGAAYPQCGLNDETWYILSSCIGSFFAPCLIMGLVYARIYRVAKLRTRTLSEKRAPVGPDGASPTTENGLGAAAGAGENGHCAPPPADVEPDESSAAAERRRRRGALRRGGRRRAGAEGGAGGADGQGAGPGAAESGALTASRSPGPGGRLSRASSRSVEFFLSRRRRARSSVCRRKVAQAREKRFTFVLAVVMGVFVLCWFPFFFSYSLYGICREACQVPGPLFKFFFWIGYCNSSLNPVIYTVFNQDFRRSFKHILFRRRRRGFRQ
parameter.measured: pKi
pKi is defined as minus the log10 of a concentration measured in mol/L.

Sure, the documented pKi for Cc1ccc2c(c1)c1c(n2CCc2ccccc2)CCN(C)C1.Cl [A•HCl] is 8.45

###

# test.system: Adrenergic α1A (Homo sapiens, UniProt P35348)
# Sequence (P35348 1-466): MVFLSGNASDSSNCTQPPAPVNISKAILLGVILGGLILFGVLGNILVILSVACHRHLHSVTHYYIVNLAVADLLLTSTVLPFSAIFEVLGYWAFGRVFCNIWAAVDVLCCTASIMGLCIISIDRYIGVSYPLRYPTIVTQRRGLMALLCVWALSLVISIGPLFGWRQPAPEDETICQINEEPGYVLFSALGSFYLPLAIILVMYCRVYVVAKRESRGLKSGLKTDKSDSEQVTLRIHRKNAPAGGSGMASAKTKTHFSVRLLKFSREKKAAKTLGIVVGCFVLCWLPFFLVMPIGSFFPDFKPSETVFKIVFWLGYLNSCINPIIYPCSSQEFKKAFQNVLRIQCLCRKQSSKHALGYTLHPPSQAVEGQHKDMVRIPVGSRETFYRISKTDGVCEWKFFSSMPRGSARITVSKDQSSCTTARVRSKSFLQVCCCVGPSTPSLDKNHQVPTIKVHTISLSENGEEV
parameter.measured: Ki (nM)
Response body: numeric value in nM, unit text excluded.

Sure, the documented Ki for Cc1ccc2c(c1)c1c(n2CCc2ccccc2)CCN(C)C1.Cl [A•HCl] is 30.2

Values from patent US12357619B2
